- Tested on: SN12C renal
- measurement.description: NCI-60 one-dose screen, 48 h
- assay.conditions: 10 µM unless noted
About 83,000 compounds went through this panel and 20% of them were active in at least one assay; those are over-represented in the sample as a whole. Active and inactive are the calls of the source. Rule for the calls: active = growth percent below 10; inactive = the rest.
Classes used: active, inactive

{"compound": "COc1ccc(-c2nnc(SCC(=O)NC3=NN=C(c4ccccc4)CS3)o2)cc1", "measured.target": "SN12C renal", "cat": "inactive"}
{"compound": "COc1cc(CNC(=O)/C=C/C=C/c2ccc3c(c2)OCO3)ccc1OCc1cn(-c2ccc(Cl)c(Cl)c2)nn1", "measured.target": "SN12C renal", "cat": "inactive"}
{"compound": "C=C1C(=O)O[C@H]2[C@H]1CC/C(COC(=O)NCc1ccc(Cn3c(=O)sn(CCCCl)c3=O)cc1)=C\\CC[C@@]1(C)O[C@@H]21", "measured.target": "SN12C renal", "cat": "inactive"}
{"compound": "Cc1c(C(=O)O[C@H]2[C@@H]3[C@H](C)CC[C@H]3[C@]3(C)O[C@@]2(C2CCCCC2)C[C@H]3OC(=O)CO)ccc2ccccc12", "measured.target": "SN12C renal", "cat": "active"}
{"compound": "CN(C)c1cnccn1", "measured.target": "SN12C renal", "cat": "inactive"}
{"compound": "COc1ccc(NC(=O)C(=O)c2c[nH]c3ccc(F)cc23)cc1", "measured.target": "SN12C renal", "cat": "inactive"}
{"compound": "O=C1N(c2ccccc2)C(=S)N[C@]12[C@H](c1ccccc1)C1CCCN1[C@]21C(=O)NC2C=CC(Cl)=C[C@H]21 (stereo not given in full)", "measured.target": "SN12C renal", "cat": "inactive"}
{"compound": "O=[N+]([O-])c1ccc(-c2cc3c(Nc4ccc(Sc5nc6ccccc6s5)c(Cl)c4)ncnc3s2)cc1", "measured.target": "SN12C renal", "cat": "inactive"}
{"compound": "COc1ccc(Oc2nc(Nc3ccc(N4CCCCC4)nc3)ncc2NC(=O)c2cc(OC)cc(OC)c2)cc1", "measured.target": "SN12C renal", "cat": "inactive"}
{"compound": "N[C@@H]1CCC[C@H]1NCCCCN1C(=O)c2cccc3cccc(c23)C1=O", "measured.target": "SN12C renal", "cat": "inactive"}
{"compound": "CCCCCOC(=O)c1cccc(NC(=O)CN(CC)CC)c1", "measured.target": "SN12C renal", "cat": "inactive"}
{"compound": "C=C1c2c(C)nn(-c3ccc(O)cc3)c2N(C)C23C[C@@H]1C1(C)c4c(C)nn(-c5ccc(O)cc5)c4N(C)C(C)(C[C@H]12)C3 (stereo not given in full)", "measured.target": "SN12C renal", "cat": "inactive"}
{"compound": "NC(=O)CC1(O)C=C(Br)C(=O)C(Br)=C1", "measured.target": "SN12C renal", "cat": "inactive"}
{"compound": "CCOC(=O)c1cnn2c(-c3ccc(Cl)cc3)nc(NCc3ccccc3)nc12", "measured.target": "SN12C renal", "cat": "inactive"}
{"compound": "Cc1nc2ccc(C(=O)NCc3cc(C(=O)O)c(C)o3)cc2nc1C", "measured.target": "SN12C renal", "cat": "inactive"}
{"compound": "Cc1c(C(=O)O)nnn1-c1nccs1", "measured.target": "SN12C renal", "cat": "inactive"}
{"compound": "Cc1ccc(S(=O)(=O)N(CC[C@@H]2C[C@H]2c2cc3ccccc3o2)C(=O)NC2CCCCC2)cc1", "measured.target": "SN12C renal", "cat": "inactive"}
{"compound": "CN(C)c1ccc(C#Cc2c(F)cccc2Cl)cc1", "measured.target": "SN12C renal", "cat": "inactive"}
{"compound": "COc1ccccc1NC(=O)Nc1ccc(-c2nc3ccccc3o2)cc1", "measured.target": "SN12C renal", "cat": "inactive"}
{"compound": "C[C@@H]1C(=O)N(C[C@@H](Cc2ccccc2)NC(=O)OCc2ccccc2)[C@]1(Cc1ccccc1)C(=O)OCc1ccccc1", "measured.target": "SN12C renal", "cat": "inactive"}
{"compound": "CCc1nc2ccccc2[nH]1", "measured.target": "SN12C renal", "cat": "inactive"}
{"compound": "NS(=O)(=O)c1cnccc1-n1ccc(=O)c(S(N)(=O)=O)c1", "measured.target": "SN12C renal", "cat": "inactive"}
{"compound": "COc1ccc(/C(C)=C(\\c2ccc(Cl)cc2)c2ccc(OCCCN(C)C)cc2)cc1F", "measured.target": "SN12C renal", "cat": "inactive"}
{"compound": "COc1cccc(-c2cnco2)c1OCc1c(C)c(COc2c(OC)cccc2-c2cnco2)c(C)c(COc2c(OC)cccc2-c2cnco2)c1C", "measured.target": "SN12C renal", "cat": "inactive"}
{"compound": "CCCCN1CCN(c2ccc3nc(-c4ccc5nc(-c6cc(OC)c(OC)c(OC)c6)[nH]c5c4)[nH]c3c2)CC1", "measured.target": "SN12C renal", "cat": "inactive"}
{"compound": "N#Cc1c(NC(=O)c2cccc(C(F)(F)F)c2)sc2c1CCC(=O)C2", "measured.target": "SN12C renal", "cat": "active"}
{"compound": "Cc1ccc(/C(=N\\N=C(N)N)c2ccccc2)cc1", "measured.target": "SN12C renal", "cat": "inactive"}
{"compound": "COc1cccc(-c2nc3sccn3c2-c2ccnc(NCCNS(=O)(=O)c3c(Cl)cccc3Cl)c2)c1", "measured.target": "SN12C renal", "cat": "inactive"}
{"compound": "Cc1cnc(Nc2ccc(N3CCN(C)CC3)cc2)nc1Nc1ccc(Cl)c(NS(=O)(=O)C(C)(C)C)c1", "measured.target": "SN12C renal", "cat": "inactive"}
{"compound": "O=C(NC(=S)Nc1ccc(-c2nc3ccccc3[nH]2)cc1)c1ccc2ccccc2c1", "measured.target": "SN12C renal", "cat": "inactive"}
{"compound": "Nc1ccc(CCCCc2ccccc2)c(Cl)c1", "measured.target": "SN12C renal", "cat": "inactive"}
{"compound": "Nc1nc(Nc2ccc(Cl)cc2)nn1S(=O)(=O)c1ccc(-c2ccc(F)cc2)cc1", "measured.target": "SN12C renal", "cat": "inactive"}
{"compound": "O=C1C(Cl)C(c2ccccc2Cl)N1n1cnnc1 (stereo not given)", "measured.target": "SN12C renal", "cat": "inactive"}
{"compound": "CN(C)S(=O)(=O)n1cnc([C@@H]2[C@@H]3C(=O)OC[C@@H]3C[C@]23N=CN(Cc2ccccc2)C3=O)c1", "measured.target": "SN12C renal", "cat": "inactive"}
{"compound": "O=C1CC(c2ccc3c(c2)OCO3)Nc2cc3c(cc21)OCO3 (stereo not given)", "measured.target": "SN12C renal", "cat": "inactive"}
{"compound": "CC(C)OC(=O)NNC(=O)c1ccncc1", "measured.target": "SN12C renal", "cat": "inactive"}
{"compound": "Cc1nc(-c2ccccc2)cc2c(O)c(C(=O)N/N=C/c3ccc(N(C)C)cc3)[nH]c(=O)c12", "measured.target": "SN12C renal", "cat": "inactive"}
{"compound": "CSc1ncc(C)c(Nc2ccc(Cl)cc2)n1", "measured.target": "SN12C renal", "cat": "inactive"}
{"compound": "O=C(CC12CC3CC(CC(C3)C1)C2)NCCOCCOCCOCCNC(=O)c1cc2c(o1)C(=O)c1ccccc1C2=O", "measured.target": "SN12C renal", "cat": "active"}
{"compound": "Cc1ccc(O)c(C(=O)c2ccccc2Cl)c1", "measured.target": "SN12C renal", "cat": "inactive"}

###

- System: NCI-H23 lung
- measurement.description: NCI-60 one-dose screen, 48 h (100 = growth as untreated, 0 = no growth, -100 = all killed)
- assay.conditions: 10 µM unless noted
Compounds without any hit were thinned out: in the full panel of roughly 83,000, 20% have a hit.

{"compound": "NC(=O)c1c(NC(=O)c2ccccn2)sc2c1CCC(=O)C2", "growth / %": 17.2}
{"compound": "N#Cc1c(Oc2ccc([N+](=O)[O-])cc2)nc2sc3cc(Cl)ccc3n2c1=N", "growth / %": 73.7}
{"compound": "O=C1NN(C(=O)c2ccc(O)cc2)C(c2ccccc2)=N/C1=C\\c1cn(-c2ccccc2)nc1-c1ccccc1", "growth / %": 98.3}
{"compound": "O=S(=O)(Nc1ccsc1-c1nc(-c2ccccc2)no1)c1cc(Cl)cc(Cl)c1", "growth / %": 94.4}
{"compound": "CCOC(=O)C(O)C(O)(c1ccccc1)c1ccccc1 (stereo not drawn)", "growth / %": 102}
{"compound": "O=C(Nc1ccccc1)c1sc(-c2cccc(C(F)(F)F)c2)cc1O", "growth / %": 54.1}
{"compound": "O=C(NC(=S)Nc1ccc(-c2nc3ccccc3[nH]2)cc1)c1ccc2ccccc2c1", "growth / %": 58.1}
{"compound": "COc1ccc(/C(C)=C(\\c2ccc(Cl)cc2)c2ccc(OCCN3CCCCCC3)cc2)cc1F", "growth / %": 54.1}
{"compound": "Cc1ccc2c(n1)C(=O)C(Oc1ccc(F)cc1)=CC2=O", "growth / %": 94.9}
{"compound": "COc1ccc(-c2nc3ncccn3c2/C=C/C(=O)c2cc(OC)c(OC)c(OC)c2)cc1", "growth / %": -19.6}
{"compound": "O=[N+]([O-])c1ccc(-c2cc3c(Nc4ccc(Cl)c(C(F)(F)F)c4)ncnc3s2)cc1", "growth / %": -6.97}
{"compound": "COc1cc(/C=C/C(=O)c2cccc(-n3cc(-c4ccc(Cl)cc4)[nH]c3=O)c2)cc(OC)c1OC", "growth / %": 52.3}
{"compound": "COc1ccc(C2CC(c3ccc4ccccc4c3)=NN2c2nc(O)c(C3=c4cc(Cl)ccc4=NC3=O)s2)cc1 (stereo not drawn)", "growth / %": -40.9}
{"compound": "CNC(=O)c1cc(Oc2ccc3nc(NC(=O)Nc4cc(C(F)(F)F)cc(C(F)(F)F)c4)sc3c2)ccn1", "growth / %": -67.9}
{"compound": "COc1cc(-c2cccc([N+](=O)[O-])c2)c(-c2nc(-c3ccccc3)c(-c3ccccc3)n2C2CC2)cc1OC", "growth / %": 68}
{"compound": "CCCCCCNC(=O)c1cc(NCc2cc(O)ccc2O)ccc1O", "growth / %": 87.5}
{"compound": "O=C1Nc2ccccc2/C1=N/N=C/c1c[nH]c2ccccc12", "growth / %": 82}
{"compound": "Cc1cn(C2CCCCC2)c(=O)[nH]c1=O", "growth / %": 115}
{"compound": "C[C@@H](C[C@H](CCOCc1cccnc1)c1ccccc1)c1cc2ccccc2o1", "growth / %": 90.7}
{"compound": "CC(C)n1nc(C#Cc2cccc(O)c2)c2c(N)ncnc21", "growth / %": -28.4}
{"compound": "O=C(NCCN1CCC(O)CC1)c1cc2c(o1)C(=O)c1ccccc1C2=O", "growth / %": -50.9}
{"compound": "Cc1nc(C)c(-c2nn3c(-c4cccc(F)c4)nnc3s2)s1", "growth / %": 97.3}
{"compound": "N#Cc1c(NC(=O)c2ccccc2I)sc2c1CCCC2", "growth / %": 73.4}
{"compound": "CN(C)c1ccc(C#Cc2c(F)cccc2Cl)cc1", "growth / %": 70.6}
{"compound": "CN(C)c1ccc(/C=C/c2c(F)cccc2F)cc1", "growth / %": 83.9}
{"compound": "COc1ccc(/C(C)=N/NS(=O)(=O)c2ccc(C)cc2)cc1OC", "growth / %": 105}
{"compound": "CS(=O)(=O)c1ccc(-c2[nH]c3ccc(F)cc3c2/C=N/NC(N)=S)cc1", "growth / %": 38.1}
{"compound": "O=C1c2ccccc2C2(c3ccc(O)cc3)c3ccccc3Oc3cccc1c32 (stereo not drawn)", "growth / %": 33.4}
{"compound": "Cc1nc(Nc2ccc(N)cc2)c2ccccc2n1", "growth / %": 86.8}
{"compound": "COc1c(C)cnc(CSc2nc(-c3ccc(C)cc3)cn2-c2ccc(Cl)cc2)c1C", "growth / %": 97}
{"compound": "O=[N+]([O-])c1ccc(-c2cc3c(Nc4ccc(OCc5cccc(Cl)c5)c(Cl)c4)ncnc3s2)cc1", "growth / %": 78.7}
{"compound": "Oc1ccccc1-c1nc2ccccn2c1NCCN1CCOCC1", "growth / %": 100}
{"compound": "CCn1c(Sc2nnc(NC(C)=O)s2)nc2c1c(=O)n(C)c(=O)n2C", "growth / %": 82.2}
{"compound": "O=C(CCCCCCCn1cc(-c2cccnc2)nn1)Nc1ccccc1-c1ccccc1", "growth / %": 63.6}
{"compound": "O=C(/C=C/C12c3ccccc3C(c3ccccc31)C1C(=O)NC(=O)C12)c1ccccc1 (stereo not drawn)", "growth / %": 6.51}
{"compound": "CC(=O)Nc1ccc2c(c1)Cc1c(F)cccc1-2", "growth / %": 94.9}
{"compound": "CCN(CC)CCOC(=O)Nc1ccccc1Cl", "growth / %": 105}
{"compound": "NC(N)=N/N=C(/c1ccccc1)c1ccccc1F", "growth / %": 34.4}
{"compound": "COc1ccc(C2=NC(=O)NC2c2ccc(OC)cc2)cc1 (stereo not drawn)", "growth / %": 68.3}
{"compound": "CCOC(=O)c1ccc(-c2ccc3cc(OC)ccc3c2)nc1C", "growth / %": 93}
{"compound": "COc1cc2nc(Nc3ccc(F)cc3)nc(N)c2cc1OC", "growth / %": 95.1}
{"compound": "Cc1ccc(/C(=N\\N=C(N)N)c2ccccc2)cc1", "growth / %": 16.6}
{"compound": "CN1CCN(c2ccc3nc(/N=C/c4ccc5sc(-c6ccc([N+](=O)[O-])cc6)nc5c4)sc3c2)CC1", "growth / %": 99.4}
